- tested_system: Recombinant human HSP90α (Homo sapiens)
- measurement_notes: HSP90 radioligand filter binding test ([3H]17AAG competition)
- measurement_setup: radioligand [3H]17AAG 0.08 μM; HSP90 1.5 μg/assay; 22° C., 30 min; read-out: HSP90 inhibition IC50
pIC50: −log10 of the molar value.
assay_readout: pIC50

compound: CCN(C)C(=O)Cc1ccc2nc(N)nc(C(=O)N3Cc4ccccc4C3)c2c1 [Compound A10]
tested_system: Recombinant human HSP90α (Homo sapiens)
reading: 5.00 to 6.00
--
compound: Nc1nc(C(=O)N2Cc3ccccc3C2)c2cc(C3(C(=O)O)CC3)ccc2n1 [Compound A57]
tested_system: Recombinant human HSP90α (Homo sapiens)
reading: 6.00 to 8.00
--
compound: CN(CCO)C(=O)Cc1ccc2nc(N)nc(C(=O)N3Cc4ccccc4C3)c2c1 [Compound A11]
tested_system: Recombinant human HSP90α (Homo sapiens)
reading: 5.00 to 6.00
--
compound: CCN(CCO)C(=O)Cc1ccc2nc(N)nc(C(=O)N3Cc4ccccc4C3)c2c1 [Compound A12]
tested_system: Recombinant human HSP90α (Homo sapiens)
reading: 5.00 to 6.00
--
compound: CCN(CCO)C(=O)C1(c2ccc3nc(N)nc(C(=O)N4Cc5ccccc5C4)c3c2)CC1 [Compound A26]
tested_system: Recombinant human HSP90α (Homo sapiens)
reading: 5.00 to 6.00
--
compound: CN(CCO)C(=O)C1(c2ccc3nc(N)nc(C(=O)N4Cc5ccccc5C4)c3c2)CC1 [Compound A25]
tested_system: Recombinant human HSP90α (Homo sapiens)
reading: 5.00 to 6.00
--
compound: CCNC(=O)C(C)(C)c1ccc2nc(N)nc(C(=O)N3Cc4ccccc4C3)c2c1 [Compound A36]
tested_system: Recombinant human HSP90α (Homo sapiens)
reading: 6.00 to 8.00
--
compound: CCNC(=O)C1(c2ccc3nc(N)nc(C(=O)N4Cc5ccccc5C4)c3c2)CCOCC1 [Compound A54]
tested_system: Recombinant human HSP90α (Homo sapiens)
reading: 5.00 to 6.00
--
compound: CC(C)(C)NC(=O)C1(c2ccc3nc(N)nc(C(=O)N4Cc5ccccc5C4)c3c2)CCC1 [Compound A29]
tested_system: Recombinant human HSP90α (Homo sapiens)
reading: 6.00 to 8.00
--
compound: Nc1nc(C(=O)N2Cc3ccccc3C2)c2cc(C3(C(=O)N4CCCC4)CC3)ccc2n1 [Compound A27]
tested_system: Recombinant human HSP90α (Homo sapiens)
reading: 5.00 to 6.00
--
compound: CCN(CC)C(=O)C1(c2ccc3nc(N)nc(C(=O)N4Cc5ccccc5C4)c3c2)CC1 [Compound A24]
tested_system: Recombinant human HSP90α (Homo sapiens)
reading: 5.00 to 6.00
--
compound: CCNC(=O)C1(c2ccc3nc(N)nc(C(=O)N4Cc5ccccc5C4)c3c2)CC1 [Compound A21]
tested_system: Recombinant human HSP90α (Homo sapiens)
reading: 6.00 to 8.00
--
compound: CC(C)(C(=O)NCCC#N)c1ccc2nc(N)nc(C(=O)N3Cc4ccccc4C3)c2c1 [Compound A40]
tested_system: Recombinant human HSP90α (Homo sapiens)
reading: 5.00 to 6.00
--
compound: CN(Cc1cncn1C)C(=O)Cc1ccc2nc(N)nc(C(=O)N3Cc4ccccc4C3)c2c1 [Compound A19]
tested_system: Recombinant human HSP90α (Homo sapiens)
reading: 5.00 to 6.00
--
compound: C=C(CC(C(=O)NCC)c1ccc2nc(N)nc(C(=O)N3Cc4ccccc4C3)c2c1)C(N)=O (stereo not shown) [Compound A50]
tested_system: Recombinant human HSP90α (Homo sapiens)
reading: 5.00 to 6.00
--
compound: CC(C)(C(=O)NCC(N)=O)c1ccc2nc(N)nc(C(=O)N3Cc4ccccc4C3)c2c1 [Compound A39]
tested_system: Recombinant human HSP90α (Homo sapiens)
reading: 6.00 to 8.00
